# target-or-test-system: TRKC kinase (Homo sapiens)
# Sequence (Q16288 32-839): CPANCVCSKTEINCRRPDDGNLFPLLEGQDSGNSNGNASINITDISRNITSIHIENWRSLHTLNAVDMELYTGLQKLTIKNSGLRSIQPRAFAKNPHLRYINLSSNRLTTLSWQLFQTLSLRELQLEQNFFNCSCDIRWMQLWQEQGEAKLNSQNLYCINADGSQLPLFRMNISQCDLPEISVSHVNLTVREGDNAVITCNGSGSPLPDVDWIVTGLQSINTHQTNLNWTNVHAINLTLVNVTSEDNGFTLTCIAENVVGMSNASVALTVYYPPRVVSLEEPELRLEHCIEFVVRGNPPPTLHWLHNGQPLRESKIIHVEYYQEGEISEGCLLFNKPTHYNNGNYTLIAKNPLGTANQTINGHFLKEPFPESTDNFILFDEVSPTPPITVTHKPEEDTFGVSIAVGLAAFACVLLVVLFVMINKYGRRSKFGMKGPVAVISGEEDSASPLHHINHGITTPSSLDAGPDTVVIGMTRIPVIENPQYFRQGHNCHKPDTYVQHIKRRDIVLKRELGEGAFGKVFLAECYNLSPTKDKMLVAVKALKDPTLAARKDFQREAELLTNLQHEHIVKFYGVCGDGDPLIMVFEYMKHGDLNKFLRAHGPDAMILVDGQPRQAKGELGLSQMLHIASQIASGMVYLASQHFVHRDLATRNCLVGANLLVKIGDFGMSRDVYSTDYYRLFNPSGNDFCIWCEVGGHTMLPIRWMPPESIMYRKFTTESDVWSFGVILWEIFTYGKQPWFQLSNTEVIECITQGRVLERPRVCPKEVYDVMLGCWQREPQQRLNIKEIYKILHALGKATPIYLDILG
# protocol-summary: Biochemical kinase analysis (HTRF), TRKC
# conditions-used: 23° C., read-out: Kinase IC50 (nM) TRK C
Field 'label' (enum: criterion met / criterion not met). Set to criterion met when IC50 is strictly under 0.1 nM; else criterion not met.

Record excerpt, results attached:
In [3]: df
Out[3]:
                                 mol_smiles     assigned_label
0  C[C@H]1Nc2ccn3ncc(c3n2)NC(=O)C(C)(C)COc2ccc(F)cc21  criterion not met
1  O=C1CCOc2ccc(F)cc2[C@@H]2CCCN2c2ccn3ncc(c3n2)N1  criterion not met

input: Criterion: IC50 strictly below 0.1 nM. Is it met by `C[C@@H]1Nc2ccn3ncc(c3n2)NC(=O)C[C@H](C)Oc2ccc(F)cc21` ?
output: criterion met

input: Criterion: IC50 strictly below 0.1 nM. Is it met by `CC1(C)COc2ccc(F)cc2[C@@H]2CCCN2c2ccn3ncc(c3n2)NC1=O` ?
output: criterion not met

input: Criterion: IC50 strictly below 0.1 nM. Is it met by `C[C@H]1Nc2ccn3ncc(c3n2)NC(=O)NCCOc2ccc(F)cc21` ?
output: criterion not met

input: Criterion: IC50 strictly below 0.1 nM. Is it met by `O=C1CCOc2ccc(F)cc2[C@H]2CCCN2c2ccn3ncc(c3n2)N1` ?
output: criterion not met

input: Criterion: IC50 strictly below 0.1 nM. Is it met by `C[C@H]1Nc2ccn3ncc(c3n2)NC(=O)NCCCc2ccc(F)cc21` ?
output: criterion not met

input: Criterion: IC50 strictly below 0.1 nM. Is it met by `C[C@H]1CC(=O)Nc2cnn3ccc(nc23)N2CCC[C@H]2c2cc(F)ccc2O1` ?
output: criterion not met

input: Criterion: IC50 strictly below 0.1 nM. Is it met by `C[C@H]1CC(=O)Nc2cnn3ccc(nc23)N[C@H](C)c2cc(F)ccc2O1` ?
output: criterion met
